Experiment: self-splicing fitness, log relative to wild type (ln ratio); higher = more splicing; Tetrahymena group I intron in knt gene, E. coli kanamycin selection, DiMSum; sequences stand for … in CUCUCU…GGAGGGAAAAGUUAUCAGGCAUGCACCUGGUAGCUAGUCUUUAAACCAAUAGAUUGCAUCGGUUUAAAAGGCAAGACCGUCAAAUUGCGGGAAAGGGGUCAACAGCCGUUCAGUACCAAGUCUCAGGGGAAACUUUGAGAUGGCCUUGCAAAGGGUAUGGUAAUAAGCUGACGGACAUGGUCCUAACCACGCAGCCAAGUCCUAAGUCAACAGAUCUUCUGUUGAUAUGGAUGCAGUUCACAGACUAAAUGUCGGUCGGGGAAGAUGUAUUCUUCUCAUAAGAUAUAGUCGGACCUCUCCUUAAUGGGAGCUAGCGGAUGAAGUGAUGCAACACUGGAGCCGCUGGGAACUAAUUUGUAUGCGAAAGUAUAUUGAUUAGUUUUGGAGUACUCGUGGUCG;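 also: selection with 25 µg/mL kanamycin versus none on LB agar overnight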
Settings: 30 °C
Decide using self-splicing fitness (ln): a value greater than or equal to -2 is 1.0, a smaller one is 0.0.

Is it the case that CACAAGCAAUAUUACGGUUG has self-splicing fitness (ln) reaching or exceeding -2?
0.0

Is it the case that UUACAGCAAUAUUACGGGUA has self-splicing fitness (ln) reaching or exceeding -2?
1.0

Is it the case that CAGAAGCAAUAUUACGCAUC has self-splicing fitness (ln) reaching or exceeding -2?
0.0

Is it the case that UUCGAGCAAUAUUACGCGAU has self-splicing fitness (ln) reaching or exceeding -2?
0.0

Is it the case that UGACAGCAAUAUUACGUGAG has self-splicing fitness (ln) reaching or exceeding -2?
1.0

Is it the case that GCCUAGCAAUAUUACGUGAU has self-splicing fitness (ln) reaching or exceeding -2?
1.0

Is it the case that AACGAGCAAUAUUACGGACC has self-splicing fitness (ln) reaching or exceeding -2?
0.0

Is it the case that UACUAGCAAUAUUACGGCCG has self-splicing fitness (ln) reaching or exceeding -2?
1.0

Is it the case that CCCGAGCAAUAUUACGUGUU has self-splicing fitness (ln) reaching or exceeding -2?
0.0

Is it the case that GGGCAGCAAUAUUACGCUUG has self-splicing fitness (ln) reaching or exceeding -2?
1.0

Is it the case that UCCUAGCAAUAUUACGUUGG has self-splicing fitness (ln) reaching or exceeding -2?
0.0

Is it the case that UAGGAGCAAUAUUACGAUAC has self-splicing fitness (ln) reaching or exceeding -2?
0.0

Is it the case that ACGCAGCAAUAUUACGUUUA has self-splicing fitness (ln) reaching or exceeding -2?
0.0

Is it the case that GUACAGCAAUAUUACGUCUC has self-splicing fitness (ln) reaching or exceeding -2?
1.0

Is it the case that GAUAAGCAAUAUUACGCGCC has self-splicing fitness (ln) reaching or exceeding -2?
1.0

Is it the case that UUACAGCAAUAUUACGAGUC has self-splicing fitness (ln) reaching or exceeding -2?
0.0

Is it the case that CAUAAGCAAUAUUACGCGAA has self-splicing fitness (ln) reaching or exceeding -2?
0.0

Is it the case that AGCUAGCAAUAUUACGGCCA has self-splicing fitness (ln) reaching or exceeding -2?
1.0

Is it the case that UCAGAGCAAUAUUACGUGAU has self-splicing fitness (ln) reaching or exceeding -2?
0.0

Is it the case that UCCCAGCAAUAUUACGCUUU has self-splicing fitness (ln) reaching or exceeding -2?
0.0

Is it the case that UAAGAGCAAUAUUACGUCAC has self-splicing fitness (ln) reaching or exceeding -2?
0.0

Is it the case that UAUAAGCAAUAUUACGUCAC has self-splicing fitness (ln) reaching or exceeding -2?
0.0

Is it the case that UCAGAGCAAUAUUACGUUCA has self-splicing fitness (ln) reaching or exceeding -2?
1.0

Is it the case that UCUAAGCAAUAUUACGGGCC has self-splicing fitness (ln) reaching or exceeding -2?
0.0

Is it the case that CAACAGCAAUAUUACGAGCG has self-splicing fitness (ln) reaching or exceeding -2?
1.0

Is it the case that CGAAAGCAAUAUUACGGAGG has self-splicing fitness (ln) reaching or exceeding -2?
1.0

Is it the case that GAAAAGCAAUAUUACGGUGU has self-splicing fitness (ln) reaching or exceeding -2?
0.0

Is it the case that ACUCAGCAAUAUUACGGGAU has self-splicing fitness (ln) reaching or exceeding -2?
1.0

Is it the case that CAAAAGCAAUAUUACGAAGU has self-splicing fitness (ln) reaching or exceeding -2?
0.0

Is it the case that AAAUAGCAAUAUUACGAGGC has self-splicing fitness (ln) reaching or exceeding -2?
0.0

Is it the case that CACGAGCAAUAUUACGUGGA has self-splicing fitness (ln) reaching or exceeding -2?
0.0

Is it the case that UUCUAGCAAUAUUACGCCUU has self-splicing fitness (ln) reaching or exceeding -2?
0.0

Is it the case that UGGAAGCAAUAUUACGACGC has self-splicing fitness (ln) reaching or exceeding -2?
1.0

Is it the case that CACAAGCAAUAUUACGACCA has self-splicing fitness (ln) reaching or exceeding -2?
1.0

Is it the case that GGUUAGCAAUAUUACGUUUU has self-splicing fitness (ln) reaching or exceeding -2?
1.0

Is it the case that UUACAGCAAUAUUACGAGUG has self-splicing fitness (ln) reaching or exceeding -2?
1.0

Is it the case that CGUUAGCAAUAUUACGCCAG has self-splicing fitness (ln) reaching or exceeding -2?
1.0

Is it the case that AUAAAGCAAUAUUACGAAGG has self-splicing fitness (ln) reaching or exceeding -2?
0.0

Is it the case that AGCAAGCAAUAUUACGGAGA has self-splicing fitness (ln) reaching or exceeding -2?
0.0

Is it the case that UUGGAGCAAUAUUACGUCGG has self-splicing fitness (ln) reaching or exceeding -2?
0.0

Is it the case that CAUAAGCAAUAUUACGGUUC has self-splicing fitness (ln) reaching or exceeding -2?
0.0

Is it the case that AAGCAGCAAUAUUACGCAAU has self-splicing fitness (ln) reaching or exceeding -2?
1.0

Is it the case that CCUGAGCAAUAUUACGGUAG has self-splicing fitness (ln) reaching or exceeding -2?
0.0

Is it the case that GGACAGCAAUAUUACGGCGC has self-splicing fitness (ln) reaching or exceeding -2?
1.0

###

Field: self-splicing fitness (ln). Provide a value for each of the sequences that follow.
Assay: self-splicing fitness, log relative to wild type (ln ratio); higher = more splicing; Tetrahymena group I intron in knt gene, E. coli kanamycin selection, DiMSum; sequences stand for … in CUCUCU…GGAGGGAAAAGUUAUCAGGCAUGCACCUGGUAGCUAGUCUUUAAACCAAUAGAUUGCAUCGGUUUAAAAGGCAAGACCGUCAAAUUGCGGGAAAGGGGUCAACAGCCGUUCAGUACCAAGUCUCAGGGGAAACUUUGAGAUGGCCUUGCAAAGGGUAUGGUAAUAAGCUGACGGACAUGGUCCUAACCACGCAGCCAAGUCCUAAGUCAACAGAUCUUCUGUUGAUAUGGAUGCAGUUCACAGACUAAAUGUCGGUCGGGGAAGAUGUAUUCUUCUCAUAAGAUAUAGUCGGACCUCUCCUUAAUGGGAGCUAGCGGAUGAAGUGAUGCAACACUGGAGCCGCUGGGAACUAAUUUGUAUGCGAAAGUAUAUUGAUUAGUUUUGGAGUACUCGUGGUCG
Details: 30 °C
Please give the numeric answer without any surrounding text.

Please look at this sequence and report its self-splicing fitness (ln): AAGUAGCAAUAUUACGUUGG
-2.96

Please look at this sequence and report its self-splicing fitness (ln): AUACAGCAAUAUUACGCCAC
-3.08

Please look at this sequence and report its self-splicing fitness (ln): UGCAAGCAAUAUUACGCUGU
-3.03

Please look at this sequence and report its self-splicing fitness (ln): AGCUAGCAAUAUUACGGUGG
-2.04

Please look at this sequence and report its self-splicing fitness (ln): CAGAAGCAAUAUUACGGUGU
-3.05

Please look at this sequence and report its self-splicing fitness (ln): CCGUAGCAAUAUUACGCAGA
-2.96

###

Field: self-splicing fitness (ln). Provide a value for each of the sequences that follow.
Test: self-splicing fitness, log relative to wild type (ln ratio); higher = more splicing; Tetrahymena group I intron in knt gene, E. coli kanamycin selection, DiMSum; sequences stand for … in CUCUCU…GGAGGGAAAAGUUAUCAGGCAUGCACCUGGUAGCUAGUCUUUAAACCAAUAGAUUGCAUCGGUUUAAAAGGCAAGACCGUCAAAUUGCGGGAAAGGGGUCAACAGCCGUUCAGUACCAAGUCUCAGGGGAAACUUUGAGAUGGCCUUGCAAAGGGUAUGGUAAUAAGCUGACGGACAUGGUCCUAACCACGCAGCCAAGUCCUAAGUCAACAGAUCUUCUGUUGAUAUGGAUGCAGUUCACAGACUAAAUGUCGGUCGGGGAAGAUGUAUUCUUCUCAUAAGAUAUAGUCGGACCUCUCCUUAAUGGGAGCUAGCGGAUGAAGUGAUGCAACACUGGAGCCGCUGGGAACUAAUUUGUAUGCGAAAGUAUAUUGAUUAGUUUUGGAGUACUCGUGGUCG
Conditions: 37 °C
Please give the numeric answer without any surrounding text.

Please look at this sequence and report its self-splicing fitness (ln): UCUCAGCAAUAUUACGGGGA
-1.98

Please look at this sequence and report its self-splicing fitness (ln): GAAUAGCAAUAUUACGGAGU
-2.03

Please look at this sequence and report its self-splicing fitness (ln): AUACAGCAAUAUUACGUUAU
-2.04
